System: SW-620 colon
protocol.text: NCI tumour cell line growth inhibition, 48 h
measured.attribute: TGI

In the examples that follow, each entry is paired with its recorded TGI.
1. S=C(Nc1ccccc1)Nc1ccccc1SC(/C=C/NNC1=NC(c2ccccc2)C(c2ccccc2)=NN1)c1ccccc1 (stereo unspecified)	> 100 µM
2. O=c1[nH]c2cc(F)c(F)cc2nc1Cc1ccccc1	> 100 µM
3. COc1ccc2nc3cccc([N+](=O)[O-])c3c(NCCNCCO)c2c1	0.61 µM
4. CC(=N\O)/C(C)=N/O.CC(=N\O)/C(C)=N/O.CC(=N\O)/C(C)=N/O.CC(=N\O)/C(C)=N/O.[CH3-].[CH3-].[Co].[Co]	> 100 µM
5. Nn1c2c(c3ccccc3c1=O)C(=O)c1ccccc1-2	> 50 µM
6. O=C(Nc1ccc(Cl)c(Cl)c1)C(=O)C(C(=O)c1ccccc1F)C1OC(=O)c2ccccc21 (stereo unspecified)	62.3 µM
7. Cc1ccc(Cl)cc1-c1nc(N)nc(Nc2ccc(Br)cc2)n1	> 100 µM
8. COc1cc(/C=C2\N=C(c3ccccc3)N(c3nc4ccc(Sc5ccccc5)cc4[nH]3)C2=O)ccc1O	> 100 µM
9. O=C(O)C1=CN=C(C(=O)O)NN1	> 100 µM
10. CCOC(=O)/C(SC#N)=C(/N)N1CCCC1	> 100 µM

Lookup result for `C/C(=N\NC(=O)c1ccncc1)c1ccccc1Cl` ; measured TGI: > 100 µM

---

Test system: A549 NSCLC
protocol.text: NCI tumour cell line growth inhibition, 48 h
measured.attribute: TGI

1) C/C(=N\NC(=O)c1ccncc1)c1ccccc1Cl	> 100 µM
2) C/C(=N\NC(=O)c1ccncc1)c1cccc(F)c1	> 10 µM
3) COC(=O)c1cc(C)ccc1/C=C1\Cc2cccc(C)c2C1=O	> 100 µM
4) COc1ccc(CCCNC(=O)Cc2cc(OC)c(OC)cc2CO)cc1OC	> 100 µM
5) CC(C)(CN1CCCCC1)C(=O)/C=C/c1ccc(Cl)c(Cl)c1	4.07 µM

Read the next record carefully.
The recorded TGI for entry CC1CC(=O)C2CC(CO)=CCCC2C1(C)CC/C(=C/CO)CO (centres undefined) equals > 100 µM

---

System: SK-MEL-28 melanoma
protocol.text: NCI tumour cell line growth inhibition, 48 h; in the data active = GI50 below about 0.43 µM; inactive = the rest
Please reply with one of these outcomes: active, inactive

1. C=C1C(=O)O[C@H]2[C@H]1CC/C(COC(=O)/C=C\C(=O)NCc1ccc(Cn3c(=O)sn(CCCI)c3=O)cc1)=C\CC[C@@]1(C)O[C@@H]21	inactive
2. COC(=O)C1=CN(CC2=CC(=O)C(C)=CC2=O)C=C(C(=O)OC)C1c1cc(OC)ccc1OC	inactive
3. CCOC(=O)/C=C1/SC(N2CCCCC2)C(=O)N1CC (centres undefined)	inactive
4. CC(=O)N1CCC(Nc2cc(C(=O)NC[C@H](O)CN3CCc4ccccc4C3)ncn2)CC1	inactive
5. Oc1cccc(-c2nc(-c3n[nH]c(=S)n3-c3ccccc3)cc3c2[nH]c2ccccc23)c1	inactive

Okay, next one:
Incoming: Name the outcome recorded for `C(=C1c2ccccc2-c2ccccc21)c1ccncc1` in the assay.
Outgoing: inactive

---

Test system: NCI/ADR-RES ovarian
protocol.text: NCI tumour cell line growth inhibition, 48 h
measured.attribute: TGI

These solved cases illustrate the format of a correct answer.
1) CCCNc1[nH]c(C(=O)c2ccccc2)c(N)c1C(=S)Nc1ccccc1	> 100 µM
2) N#Cc1nc(C(O)c2ccccc2)oc1N (stereo not given)	> 100 µM
3) Cc1cc(Oc2ccccc2)ccc1Nc1ncnc2ccc(-c3cnc(Cl)c(NS(C)(=O)=O)c3)cc12	> 100 µM

Now look at this entry.
For record `COc1ccc2c(c1)[n+]([O-])c(C#N)c(NC(=O)c1cccs1)[n+]2[O-]` the listed TGI is > 100 µM
